target.desc: glycine transporter-1 (GlyT-1) (Homo sapiens)
Construct: JAR cells (ATCC#HTB-144), which endogenously express GlyT-1; host or cells: JAR human choriocarcinoma cells
Sequence (P48067 whole entry): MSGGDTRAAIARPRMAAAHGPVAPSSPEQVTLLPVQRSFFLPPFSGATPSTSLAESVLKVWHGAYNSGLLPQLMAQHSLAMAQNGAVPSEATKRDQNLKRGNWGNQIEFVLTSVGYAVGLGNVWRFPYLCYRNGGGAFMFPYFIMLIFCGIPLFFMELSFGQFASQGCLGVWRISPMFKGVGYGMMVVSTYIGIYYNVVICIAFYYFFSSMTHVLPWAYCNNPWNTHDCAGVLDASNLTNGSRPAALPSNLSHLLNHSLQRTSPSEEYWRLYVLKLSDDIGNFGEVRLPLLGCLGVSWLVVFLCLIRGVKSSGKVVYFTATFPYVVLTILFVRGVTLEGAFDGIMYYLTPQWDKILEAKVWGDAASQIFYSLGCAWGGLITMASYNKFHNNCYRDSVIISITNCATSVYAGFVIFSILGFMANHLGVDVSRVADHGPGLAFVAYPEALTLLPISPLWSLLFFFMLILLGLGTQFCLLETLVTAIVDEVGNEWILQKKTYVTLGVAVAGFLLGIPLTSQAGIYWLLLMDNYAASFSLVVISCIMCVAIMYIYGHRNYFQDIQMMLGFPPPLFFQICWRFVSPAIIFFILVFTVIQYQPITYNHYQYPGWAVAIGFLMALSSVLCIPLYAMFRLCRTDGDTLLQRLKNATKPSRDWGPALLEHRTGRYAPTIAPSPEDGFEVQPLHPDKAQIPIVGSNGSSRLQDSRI
experiment: [14C]glycine uptake assay in JAR cells endogenously expressing GlyT-1 (scintillation proximity)
Type: cell-based
condition: JAR cells, [14C]glycine 5 μM, 3 hour incubation; read-out: GlyT-1 IC50
pIC50: −log10 of the molar value. Structures can show the parent of a compound that is named as a salt.
Lab note: compare pIC50 against 8. Equal or greater, write Criterion met. Smaller, write Criterion not met.

Example entries begin here.
INSERT INTO results (compound, label) VALUES
  ('CCCS(=O)(=O)N1CCN(C2(CNC(=O)c3c(F)cccc3F)CCC(F)(F)CC2)CC1 [compound 130, Hydrochloride]', 'Criterion not met'),
  ('CCS(=O)(=O)N1CCN(C2(CNC(=O)c3ccc(C(F)(F)F)cc3C(F)(F)F)CCC(F)(F)CC2)CC1 [compound 204, Hydrochloride]', 'Criterion not met'),
  ('CCCS(=O)(=O)N1CCN(C2(CNC(=O)c3cccc(OC)c3Cl)CCCCCC2)CC1 [compound 65, Hydrochloride]', 'Criterion not met');

State whether the measured pIC50 reaches 8, counting equality as reaching it, for CCCS(=O)(=O)N1CCN(C2(CNC(=O)c3ccc(C)c(Cl)c3)CCCCC2)CC1 [compound 31, Hydrochloride]
Criterion not met

Now give it for Cn1cc(S(=O)(=O)N2CCN(C3(CNC(=O)c4c(Cl)cccc4OC(F)(F)F)CCC(F)(F)CC3)CC2)nn1 [compound 191, Hydrochloride] too.
Criterion met

Hey, just so you know, these numbers are from patent US9045445B2.
